Origin of values: patent US20230192890A1

experimental target: full-length recombinant mouse PAD4 (mouse) (UniProt Q9Z183)
Sequence (Q9Z183 whole entry): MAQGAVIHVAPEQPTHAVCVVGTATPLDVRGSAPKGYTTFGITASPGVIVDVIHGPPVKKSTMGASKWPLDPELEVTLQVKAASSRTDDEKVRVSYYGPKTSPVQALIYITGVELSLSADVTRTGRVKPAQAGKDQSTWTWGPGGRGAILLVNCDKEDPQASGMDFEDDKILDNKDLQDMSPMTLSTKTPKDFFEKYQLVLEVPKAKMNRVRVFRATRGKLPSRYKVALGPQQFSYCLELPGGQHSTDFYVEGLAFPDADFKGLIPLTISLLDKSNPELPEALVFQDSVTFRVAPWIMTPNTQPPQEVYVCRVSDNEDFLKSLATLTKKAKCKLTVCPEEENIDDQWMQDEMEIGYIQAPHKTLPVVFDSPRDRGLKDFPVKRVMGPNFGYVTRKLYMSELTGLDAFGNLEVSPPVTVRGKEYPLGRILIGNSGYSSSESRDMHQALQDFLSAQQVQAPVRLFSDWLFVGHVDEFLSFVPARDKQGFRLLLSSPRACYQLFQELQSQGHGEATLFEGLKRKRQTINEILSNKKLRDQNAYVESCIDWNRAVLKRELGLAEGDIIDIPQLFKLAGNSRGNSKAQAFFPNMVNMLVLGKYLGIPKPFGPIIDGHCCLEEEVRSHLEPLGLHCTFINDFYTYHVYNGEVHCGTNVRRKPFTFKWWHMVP
method summary: ELISA, mouse PAD4 on plate, antibody 6.104E-05 ug/mL
measured property: absorbance 490 nm/630 nm (OD)
Provide the reading as a plain figure in OD.

Solved entries:
1) H7 (antibody, IgG1, V domains shown) VH: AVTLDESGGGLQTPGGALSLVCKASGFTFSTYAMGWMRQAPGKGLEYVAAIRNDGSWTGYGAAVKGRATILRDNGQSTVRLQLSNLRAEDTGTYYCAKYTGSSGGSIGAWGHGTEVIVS VL: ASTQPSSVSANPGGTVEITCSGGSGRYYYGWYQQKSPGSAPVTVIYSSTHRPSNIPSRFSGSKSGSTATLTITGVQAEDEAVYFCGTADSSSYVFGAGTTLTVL ... 0.103
2) E9 (antibody, IgG1, V domains shown) VH: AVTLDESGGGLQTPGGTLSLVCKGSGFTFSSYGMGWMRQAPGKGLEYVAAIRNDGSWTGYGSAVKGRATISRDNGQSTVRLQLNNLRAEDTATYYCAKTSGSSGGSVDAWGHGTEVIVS VL: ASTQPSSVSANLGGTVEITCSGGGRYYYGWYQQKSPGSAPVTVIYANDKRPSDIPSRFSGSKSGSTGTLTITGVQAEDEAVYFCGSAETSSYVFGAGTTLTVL ... 0.051

Attention now turns to another entry.
Query: What value of absorbance 490 nm/630 nm has been reported for the following binder? G8 (antibody, IgG1, V domains shown) VH: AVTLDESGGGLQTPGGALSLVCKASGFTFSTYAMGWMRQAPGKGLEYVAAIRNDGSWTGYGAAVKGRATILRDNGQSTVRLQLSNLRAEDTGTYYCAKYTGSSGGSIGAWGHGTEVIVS VL: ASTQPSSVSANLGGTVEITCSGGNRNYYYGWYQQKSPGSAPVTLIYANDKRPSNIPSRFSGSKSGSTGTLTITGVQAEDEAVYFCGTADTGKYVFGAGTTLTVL
Reply: 0.122
